biological target: Cannabinoid receptor 2 (Homo sapiens, UniProt P34972); test: Agonist activity at human recombinant CB2 receptor expressed in CHO-K1 cells assessed as inhibition of forskolin-stimulated intracellular cAMP level relative to CP-55940; type: functional, cell-based
Sequence (P34972 whole entry): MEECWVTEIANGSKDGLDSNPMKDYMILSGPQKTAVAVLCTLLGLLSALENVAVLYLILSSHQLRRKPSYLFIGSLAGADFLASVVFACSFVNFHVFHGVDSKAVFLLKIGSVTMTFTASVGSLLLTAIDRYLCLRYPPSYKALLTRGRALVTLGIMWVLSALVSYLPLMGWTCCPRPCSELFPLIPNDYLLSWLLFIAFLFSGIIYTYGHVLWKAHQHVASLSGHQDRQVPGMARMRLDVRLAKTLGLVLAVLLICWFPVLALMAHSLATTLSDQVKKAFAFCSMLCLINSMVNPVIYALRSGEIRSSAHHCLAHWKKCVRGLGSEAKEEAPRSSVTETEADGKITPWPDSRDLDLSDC
Reported Emax values are given for each entry in this list.

Look over these answered cases.
Exercise: // lookup Emax for `N#Cc1cc(NCCCc2nc(-c3ccc(F)cc3Cl)no2)cnc1OCC(F)(F)F`
Solution: 87%

Exercise: Here is the next compound: `CC(C)(C)c1cc(NCCCc2nc(-c3ccc(F)cc3Cl)no2)no1`
Solution: 90%

Attention now shifts to the item below.
Exercise: // lookup Emax for `Fc1ccc(-c2noc(CCCNc3nc4ccc(Cl)cc4s3)n2)c(Cl)c1`
Solution: 87%

* * *

Reported pEC50 values are given for each entry in this list.
target: Cannabinoid receptor 1 (Rattus norvegicus, UniProt P20272); assay: Agonist activity at rat recombinant CB1 receptor expressed in CHO-K1 cells assessed as inhibition of forskolin-stimulated intracellular cAMP level
Sequence (P20272 whole entry): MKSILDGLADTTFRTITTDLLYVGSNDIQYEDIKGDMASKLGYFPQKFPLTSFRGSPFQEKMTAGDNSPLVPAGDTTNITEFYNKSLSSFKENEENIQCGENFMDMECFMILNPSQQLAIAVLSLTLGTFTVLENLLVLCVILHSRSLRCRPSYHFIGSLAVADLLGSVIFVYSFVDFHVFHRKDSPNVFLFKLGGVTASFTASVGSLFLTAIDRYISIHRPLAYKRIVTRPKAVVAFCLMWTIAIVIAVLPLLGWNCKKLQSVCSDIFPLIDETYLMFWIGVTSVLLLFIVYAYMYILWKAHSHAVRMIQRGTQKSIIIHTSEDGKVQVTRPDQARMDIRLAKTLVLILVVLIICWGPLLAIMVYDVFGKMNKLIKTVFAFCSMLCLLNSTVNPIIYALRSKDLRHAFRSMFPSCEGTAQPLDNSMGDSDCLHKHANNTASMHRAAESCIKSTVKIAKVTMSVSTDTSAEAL
pEC50: −log10 of the molar value.

Exercise: Recall the recorded pEC50 for `CCn1c2ccccc2c2cc(NC(=O)CCc3nc(-c4ccncc4C#N)no3)ccc21` with Cannabinoid receptor 1 (Rattus norvegicus, UniProt P20272) and state it.
Solution: < 6.00

Exercise: Here is the next compound: `CCn1c2ccccc2c2cc(NC(=O)CCn3nnc(-c4ccccc4F)n3)ccc21`
Solution: < 6.00

Exercise: Here is the next compound: `N#Cc1cc(NC(=O)CCc2nc(-c3ccc(F)cc3Cl)no2)cnc1OCC(F)(F)F`
Solution: < 6.00

Exercise: Here is the next compound: `CCn1c2ccccc2c2cc(NC(=O)CCc3nc(-c4ccccc4F)no3)ccc21`
Solution: < 6.00

Exercise: Here is the next compound: `O=C(CCc1nc(-c2ccc(F)cc2Cl)no1)Nc1ccc(C(F)(F)F)nc1`
Solution: < 6.00

Next:
Exercise: Recall the recorded pEC50 for `N#Cc1cc(NCCCc2nc(-c3ccc(F)cc3Cl)no2)cnc1OCC(F)(F)F` with Cannabinoid receptor 1 (Rattus norvegicus, UniProt P20272) and state it.
Solution: < 6.00

* * *

target: Cannabinoid receptor 2 (Homo sapiens, UniProt P34972); test: Agonist activity at human recombinant CB2 receptor expressed in Sf9 cells by GTP-europium binding assay
Reported EC50 values are given for each entry in this list.
Return type: number; implicit unit nM.

Look over these answered cases.
Exercise: // lookup EC50 for `CCn1c2ccccc2c2cc(NC(=O)CCn3cc(-c4ccccc4F)nn3)ccc21`
Solution: 470

Exercise: Here is the next compound: `CC(C)(C)c1cc(NCCCc2nc(-c3ccc(F)cc3Cl)no2)no1`
Solution: 27

Next:
Exercise: // lookup EC50 for `O=C(CCc1nc(-c2ccc(F)cc2Cl)no1)Nc1cnc2ncc(Cl)cc2c1`
Solution: 3.3

Exercise: Here is the next compound: `N#Cc1cc(NCCCc2nc(-c3ccc(F)cc3Cl)no2)cnc1OCC(F)(F)F`
Solution: 31

Exercise: Here is the next compound: `CCn1c2ccccc2c2cc(NC(=O)CCc3nc(-c4ccccc4)no3)ccc21`
Solution: 150

Exercise: Here is the next compound: `CCn1c2ccccc2c2cc(NC(=O)CCc3noc(-c4ccccc4F)n3)ccc21`
Solution: 190

Exercise: Here is the next compound: `CC(C)(C)c1ncc(NC(=O)CCc2nc(-c3ccc(F)cc3Cl)no2)cn1`
Solution: 5.4

* * *

Reported Emax values are given for each entry in this list.
biological target: Cannabinoid receptor 2 (Homo sapiens); assay: Agonist activity at human recombinant CB2 receptor expressed in Sf9 cells by GTP-europium binding assay relative to CP-55940
Return type: number; implicit unit %.

Look over these answered cases.
Exercise: Recall the recorded Emax for `N#Cc1cc(NC(=O)CCc2nc(-c3ccc(F)cc3Cl)no2)cnc1OCC(F)(F)F` with Cannabinoid receptor 2 (Homo sapiens) and state it.
Solution: 110

Exercise: Here is the next molecule: `CC(C)(C)c1cc(NC(=O)CCc2nc(-c3ccc(F)cc3Cl)no2)no1`
Solution: 120

Attention now shifts to the item below.
Exercise: Recall the recorded Emax for `Fc1ccc(-c2noc(CCCOc3cnc4ccc(Cl)cc4c3)n2)c(Cl)c1` with Cannabinoid receptor 2 (Homo sapiens) and state it.
Solution: 110

* * *

molecular target: Cannabinoid receptor 1 (Rattus norvegicus, UniProt P20272); assay: Agonist activity at rat recombinant CB1 receptor expressed in CHO-K1 cells assessed as inhibition of forskolin-stimulated intracellular cAMP level
Reported pEC50 values are given for each entry in this list.
Value format note: pEC50 is -log10 of concentration (mol/L); just state the number.

Exercise: // lookup pEC50 for `Fc1ccc(-c2noc(CCCNc3cnc4ccc(OC(F)(F)F)cc4c3)n2)c(Cl)c1`
Solution: 6.89

Exercise: Here is the next compound: `O=C(CCc1nc(-c2ccc(F)cc2Cl)no1)Nc1nnc(N2CCCCC2)s1`
Solution: 6.66

Exercise: Here is the next compound: `CC(C)(C)c1cc(NC(=O)CCc2nc(-c3ccc(F)cc3Cl)no2)no1`
Solution: 6.77

Attention now shifts to the item below.
Exercise: // lookup pEC50 for `CCn1c2ccccc2c2cc(NC(=O)CCc3nc(-c4ccc(F)cc4Cl)no3)ccc21`
Solution: 6.48

* * *

target: UniProtKB P34972; assay: Agonist activity at human recombinant CB2 receptor expressed in Sf9 cells by GTP-europium binding assay
pEC50: −log10 of the molar value.
Grouping by measured pEC50 is done with the following cut points: low: < 7; mid: ≥ 7 and < 8; high: ≥ 8

Field: example entries. Status: answers known.
Exercise: State the class of the molecule shown: `CCn1c2ccccc2c2cc(NC(=O)CCc3nc(-c4ccccc4F)co3)ccc21`
Solution: low

Exercise: Here is the next molecule: `CCn1c2ccccc2c2cc(NC(=O)CCc3cc(-c4ccccc4F)[nH]n3)ccc21`
Solution: low

Exercise: Here is the next molecule: `CCn1c2ccccc2c2cc(NC(=O)CCc3nc(C4CCOCC4)no3)ccc21`
Solution: mid

Exercise: Here is the next molecule: `CCn1c2ccccc2c2cc(NC(=O)CCn3nnc(-c4ccccc4F)n3)ccc21`
Solution: low

Exercise: Here is the next molecule: `Fc1ccc(-c2noc(CCCNc3cnc4ccc(Cl)cc4c3)n2)c(Cl)c1`
Solution: high

Next:
Exercise: State the class of the molecule shown: `CCn1c2ccccc2c2cc(NC(=O)CCc3nc(-c4cccc(Cl)c4)no3)ccc21`
Solution: low

* * *

target: Cannabinoid receptor 2 (Homo sapiens, UniProt P34972); experiment: Agonist activity at human recombinant CB2 receptor expressed in Sf9 cells by GTP-europium binding assay
Reported pEC50 values are given for each entry in this list.
Value format note: pEC50 is -log10 of concentration (mol/L); just state the number.

Look over these answered cases.
Exercise: // lookup pEC50 for `CCn1c2ccccc2c2cc(NC(=O)CCc3nc(-c4ccccc4Cl)no3)ccc21`
Solution: 8.22

Exercise: Here is the next compound: `N#Cc1cc(NC(=O)CCc2nc(-c3ccc(F)cc3Cl)no2)cnc1OCC(F)(F)F`
Solution: 7.85

Exercise: Here is the next compound: `O=C(CCc1nc(-c2ccc(F)cc2Cl)no1)Nc1ccc(C(F)(F)F)cc1`
Solution: 7.12

Exercise: Here is the next compound: `O=C(CCc1nc(-c2ccc(F)cc2Cl)no1)Nc1ccc(C(F)(F)F)c(Cl)c1`
Solution: 7.21

Next:
Exercise: // lookup pEC50 for `CCn1c2ccccc2c2cc(NC(=O)CCc3nc(-c4ccc(F)cc4)no3)ccc21`
Solution: 8.01
